- Assay Remarks: Metabolic stability in human liver microsomes assessed as compound remaining at 1 uM at 60 mins by LC/MS/MS analysis in absence of NADPH
- Type: ADME, Microsome
- Measurement Context: liver microsomes, read-out: Stability
Property: remaining at 1 h, 1 µM (%)
Expressed in %, but write only the number.

// below: answered compounds
CC(=O)O[C@@H]([C@H]1C[C@@H](C)[C@H]2[C@H](O1)[C@H](O)[C@@]1(C)[C@@H]3CC[C@H]4C(C)(C)[C@@H](O[C@H]5CN([C@H]6CCNC6=O)CCO5)CC[C@@]45C[C@@]35CC[C@]21C)C(C)(C)O :: 3
CNC(=O)O[C@H](C(C)C)[C@H]1C[C@@H](C)[C@H]2[C@H](O1)[C@H](O)[C@@]1(C)[C@@H]3CC[C@H]4C(C)(C)[C@@H](O[C@H]5CNCCO5)CC[C@@]45C[C@@]35CC[C@]21C :: 95
CC(C)O[C@@H]([C@H]1C[C@@H](C)[C@H]2[C@H](O1)[C@H](O)[C@@]1(C)[C@@H]3CC[C@H]4C(C)(C)[C@@H](O[C@H]5CN(C6COC6)CCO5)CC[C@@]45C[C@@]35CC[C@]21C)C(C)(C)O :: 105

Let us move to another entry and its remaining at 1 h, 1 µM.
Ask | Give its remaining at 1 h, 1 µM value. Item: `CC(C)[C@@H](OC(=O)N1CCC1)[C@H]1C[C@@H](C)[C@H]2[C@H](O1)[C@H](O)[C@@]1(C)[C@@H]3CC[C@H]4C(C)(C)[C@@H](OC(=O)N5CCOCC5)CC[C@@]45C[C@@]35CC[C@]21C`
Reply | 104
